subject of test: Tyrosine-protein kinase ABL1 (Homo sapiens)
Sequence (P00519 whole entry, the tested form may be a part): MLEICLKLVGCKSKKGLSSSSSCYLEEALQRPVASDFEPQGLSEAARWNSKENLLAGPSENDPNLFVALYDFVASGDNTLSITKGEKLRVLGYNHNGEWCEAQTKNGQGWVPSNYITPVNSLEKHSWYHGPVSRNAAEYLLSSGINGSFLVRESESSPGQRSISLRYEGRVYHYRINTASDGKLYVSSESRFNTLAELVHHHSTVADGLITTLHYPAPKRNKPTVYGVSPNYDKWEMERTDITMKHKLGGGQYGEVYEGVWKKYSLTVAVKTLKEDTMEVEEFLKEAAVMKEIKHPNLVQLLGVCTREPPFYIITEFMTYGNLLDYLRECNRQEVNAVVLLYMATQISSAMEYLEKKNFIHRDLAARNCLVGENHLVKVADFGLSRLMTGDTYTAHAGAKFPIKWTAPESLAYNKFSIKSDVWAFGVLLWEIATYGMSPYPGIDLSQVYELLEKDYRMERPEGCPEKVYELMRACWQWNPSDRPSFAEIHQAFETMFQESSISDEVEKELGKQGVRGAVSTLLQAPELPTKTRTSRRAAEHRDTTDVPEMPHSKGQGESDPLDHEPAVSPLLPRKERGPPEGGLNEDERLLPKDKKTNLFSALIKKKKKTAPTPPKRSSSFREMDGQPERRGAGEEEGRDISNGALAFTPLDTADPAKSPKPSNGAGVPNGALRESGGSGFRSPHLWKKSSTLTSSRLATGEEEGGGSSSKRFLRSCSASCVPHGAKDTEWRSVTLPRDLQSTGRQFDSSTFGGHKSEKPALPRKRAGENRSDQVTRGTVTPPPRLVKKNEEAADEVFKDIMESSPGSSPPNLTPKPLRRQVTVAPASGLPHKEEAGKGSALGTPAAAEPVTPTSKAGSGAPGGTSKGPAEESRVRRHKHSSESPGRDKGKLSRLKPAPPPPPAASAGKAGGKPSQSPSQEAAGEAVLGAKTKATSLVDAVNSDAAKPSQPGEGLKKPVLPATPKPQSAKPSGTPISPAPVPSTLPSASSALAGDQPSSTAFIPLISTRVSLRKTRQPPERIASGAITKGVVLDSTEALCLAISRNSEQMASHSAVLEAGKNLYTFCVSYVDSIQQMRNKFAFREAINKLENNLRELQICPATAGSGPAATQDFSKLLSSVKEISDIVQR
method: Binding affinity to catalytic site of N-terminal His6-tagged ABL (83 to 534 residues) (unknown origin) expressed in Escherichia coli co-expressing Protein Tyrosine Phosphatase 1b by NMR spectroscopy based dual-site competition assay
metric: Kd (µM)
Just the number please, in µM, no unit attached.

QUERY: Tell me its Kd on Tyrosine-protein kinase ABL1 (Homo sapiens): NC(=O)C1CCN(c2ccc(C(F)(F)F)cn2)CC1
RESULT: 43
